Ref: patent US20250170248A1

# target entity: SMARCA2 (Homo sapiens, UniProt P51531)
# Sequence (P51531 whole entry): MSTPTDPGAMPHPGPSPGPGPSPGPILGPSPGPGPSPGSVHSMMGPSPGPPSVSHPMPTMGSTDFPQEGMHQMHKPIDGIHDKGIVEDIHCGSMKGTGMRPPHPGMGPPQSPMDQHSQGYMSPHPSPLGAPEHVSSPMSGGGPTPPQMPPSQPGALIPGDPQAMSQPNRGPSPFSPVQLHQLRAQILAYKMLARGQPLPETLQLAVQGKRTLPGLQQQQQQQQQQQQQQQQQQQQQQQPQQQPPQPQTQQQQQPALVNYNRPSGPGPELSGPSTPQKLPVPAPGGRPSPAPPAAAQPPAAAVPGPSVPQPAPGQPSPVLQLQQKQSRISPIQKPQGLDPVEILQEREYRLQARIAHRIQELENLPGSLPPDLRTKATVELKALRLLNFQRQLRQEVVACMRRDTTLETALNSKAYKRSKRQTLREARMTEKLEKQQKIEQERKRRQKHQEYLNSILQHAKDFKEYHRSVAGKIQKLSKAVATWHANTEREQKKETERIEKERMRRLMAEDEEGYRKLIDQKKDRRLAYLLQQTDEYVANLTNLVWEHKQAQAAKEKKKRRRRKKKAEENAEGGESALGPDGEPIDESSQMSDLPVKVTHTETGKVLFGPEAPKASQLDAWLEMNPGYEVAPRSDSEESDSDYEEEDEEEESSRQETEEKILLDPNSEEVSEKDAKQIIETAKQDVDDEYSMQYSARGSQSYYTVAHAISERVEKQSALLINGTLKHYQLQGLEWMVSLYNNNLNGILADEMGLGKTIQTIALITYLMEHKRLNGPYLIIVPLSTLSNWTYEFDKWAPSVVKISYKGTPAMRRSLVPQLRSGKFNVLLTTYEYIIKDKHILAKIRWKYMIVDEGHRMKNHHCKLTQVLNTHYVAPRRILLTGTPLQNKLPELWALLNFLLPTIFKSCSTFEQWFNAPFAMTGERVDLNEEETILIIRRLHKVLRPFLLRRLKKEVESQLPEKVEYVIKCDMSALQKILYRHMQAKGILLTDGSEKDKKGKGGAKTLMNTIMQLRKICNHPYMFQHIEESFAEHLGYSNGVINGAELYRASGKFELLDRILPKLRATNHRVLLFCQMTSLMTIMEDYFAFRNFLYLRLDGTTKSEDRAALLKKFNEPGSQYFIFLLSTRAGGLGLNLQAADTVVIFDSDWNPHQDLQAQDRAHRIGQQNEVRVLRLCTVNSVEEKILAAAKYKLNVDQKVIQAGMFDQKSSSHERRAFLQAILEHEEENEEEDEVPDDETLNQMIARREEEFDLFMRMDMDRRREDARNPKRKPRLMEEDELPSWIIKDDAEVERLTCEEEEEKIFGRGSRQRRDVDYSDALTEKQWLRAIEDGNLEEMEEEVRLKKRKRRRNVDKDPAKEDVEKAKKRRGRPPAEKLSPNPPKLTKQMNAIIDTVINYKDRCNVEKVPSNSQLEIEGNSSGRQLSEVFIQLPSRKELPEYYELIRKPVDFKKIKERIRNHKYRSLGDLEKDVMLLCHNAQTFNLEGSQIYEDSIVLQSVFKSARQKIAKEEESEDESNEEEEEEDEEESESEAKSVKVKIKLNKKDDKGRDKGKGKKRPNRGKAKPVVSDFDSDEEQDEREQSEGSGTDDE
# assay remarks: SMARCA2 Western blot degradation in MV4-11 cells
# Assay type: cell-based
# Set-up: SMARCA2/SMARCA4 protein degradation selectivity in MV4-11 cells; endogenous in cells; host or cells: MV4-11
# experimental setup: MV4-11 cells, 24 h; read-out: SMARCA2 MSD MV411 degradation 24 h: Mean external-Abs DC50
Listing: DC50 of selected compounds

>  <compound>
C#Cc1ccc([C@H](C)NC(=O)[C@@H]2C[C@@H](O)CN2C(=O)[C@@H](NC(=O)N2CC3(C2)CN(C2CCN(c4cnc(N5CCc6[nH]c7nnc(-c8ccccc8O)cc7c6[C@H]5C)nc4)CC2)C3)C(C)(C)C)cc1 [I-249]

>  <DC50>
10 to 100 nM

$$$$
>  <compound>
C#Cc1ccc(CNC(=O)[C@@H]2C[C@@H](O)CN2C(=O)[C@@H](NC(=O)[C@H]2CCC3(CC2)C[C@H](N2CCN(c4cnc(N5CCN6c7cc(-c8ccccc8O)nnc7NC[C@H]6C5)nc4)CC2)C3)C(C)(C)C)cc1 (single isomer, unassigned) [I-122]

>  <DC50>
1 to 10 nM

$$$$
>  <compound>
Cc1ncsc1-c1ccc(CNC(=O)[C@@H]2C[C@@H](O)CN2C(=O)[C@@H](NC(=O)N2CC3(CCC(N4CCC(c5cnc(N6CCN7c8cc(-c9ccccc9O)nnc8NC[C@H]7C6)nc5)CC4)CC3)C2)C(C)(C)C)cc1 [I-69]

>  <DC50>
< 1 nM

$$$$
>  <compound>
C#Cc1ccc(CNC(=O)[C@@H]2C[C@@H](O)CN2C(=O)[C@@H](NC(=O)[C@H]2CCC3(CC2)C[C@H](N2CCC(c4cnc(N5CCN6c7cc(-c8cccc(Cl)c8O)nnc7NC[C@H]6C5)nc4)CC2)C3)C(C)(C)C)cc1 (single isomer, unassigned) [I-152]

>  <DC50>
10 to 100 nM

$$$$
